target: recombinant human OX40 fused to a His-tag (Acro Biosystems, cat. no. OX0-H5224) (human) (UniProt P43489); experiment: BLI cross-block; first Ab (competitor): IgG1-CD134-ABBV368
Sequence (P43489 29-214 limits assumed): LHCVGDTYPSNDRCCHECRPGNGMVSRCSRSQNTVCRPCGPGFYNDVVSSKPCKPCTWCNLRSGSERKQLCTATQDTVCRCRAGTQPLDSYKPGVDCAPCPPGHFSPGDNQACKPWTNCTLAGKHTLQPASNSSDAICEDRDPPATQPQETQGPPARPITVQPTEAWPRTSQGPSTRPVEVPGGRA
Measured Attribute: association response (nm)
Reply with just the number (in nm).

Exercise: Name the recorded association response for IgG1-CD134-MEDI0562 (antibody, INN chains, looked up, V domains shown, IgG1) VH: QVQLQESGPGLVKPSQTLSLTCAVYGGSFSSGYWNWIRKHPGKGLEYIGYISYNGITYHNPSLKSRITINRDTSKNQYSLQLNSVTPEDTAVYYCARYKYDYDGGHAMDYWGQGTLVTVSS VL: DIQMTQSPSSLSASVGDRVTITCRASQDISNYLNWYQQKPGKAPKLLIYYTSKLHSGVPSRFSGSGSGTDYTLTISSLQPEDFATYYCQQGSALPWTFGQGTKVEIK .
Solution: -0.02
